# targetOrSystem: CaBbc1
# experimentalDetails: SPOT peptide array binding signal intensity (averaged, normalized) (arbitrary units (background-subtracted, floor 0; scale differs between SH3 domains)); higher = stronger binding of the SH3 domain to the peptide
Provide the recorded SPOT peptide array binding signal intensity for the entries that follow.
Please reply with the number alone, leaving off any unit.

QUERY: Dear colleague, I am looking for the recorded SPOT peptide array binding signal intensity of the following binder: TKRKRPARLIFYDSK
RESULT: 66.5

QUERY: Dear colleague, I am looking for the recorded SPOT peptide array binding signal intensity of the following binder: DAPASKPSVPPRNYF
RESULT: 962

QUERY: Dear colleague, I am looking for the recorded SPOT peptide array binding signal intensity of the following binder: ISNFVPPNLPMRRFK
RESULT: 902

QUERY: Dear colleague, I am looking for the recorded SPOT peptide array binding signal intensity of the following binder: RRRIAYPFYPFKKLG
RESULT: 0.25

QUERY: Dear colleague, I am looking for the recorded SPOT peptide array binding signal intensity of the following binder: HRRRRVFSIPSLKSI
RESULT: 198

QUERY: Dear colleague, I am looking for the recorded SPOT peptide array binding signal intensity of the following binder: VAPPPLPNRQLPNLD
RESULT: 252

QUERY: Dear colleague, I am looking for the recorded SPOT peptide array binding signal intensity of the following binder: ATKSASPTLPTRRSR
RESULT: 986

QUERY: Dear colleague, I am looking for the recorded SPOT peptide array binding signal intensity of the following binder: APPPPPRRATPEKKP
RESULT: 368

QUERY: Dear colleague, I am looking for the recorded SPOT peptide array binding signal intensity of the following binder: RRARRQMGIPTISQV
RESULT: 197

QUERY: Dear colleague, I am looking for the recorded SPOT peptide array binding signal intensity of the following binder: AIPPPVPNRPGGTTN
RESULT: 2040

QUERY: Dear colleague, I am looking for the recorded SPOT peptide array binding signal intensity of the following binder: QPWTDQFEKLEKEVS
RESULT: 3.5

QUERY: Dear colleague, I am looking for the recorded SPOT peptide array binding signal intensity of the following binder: YHSRRHPLALGFKYV
RESULT: 6.75

QUERY: Dear colleague, I am looking for the recorded SPOT peptide array binding signal intensity of the following binder: RFKRHRLEFPFNESE
RESULT: 107

QUERY: Dear colleague, I am looking for the recorded SPOT peptide array binding signal intensity of the following binder: MPAPPPPPPPPPGAF
RESULT: 0.25

QUERY: Dear colleague, I am looking for the recorded SPOT peptide array binding signal intensity of the following binder: NILKRRPLKLEAPSK
RESULT: 1.25

QUERY: Dear colleague, I am looking for the recorded SPOT peptide array binding signal intensity of the following binder: GRSRLFPHSPLGRSS
RESULT: 105

QUERY: Dear colleague, I am looking for the recorded SPOT peptide array binding signal intensity of the following binder: GRLRPKRIAPWHLIQ
RESULT: 156

QUERY: Dear colleague, I am looking for the recorded SPOT peptide array binding signal intensity of the following binder: KRNRLKILLPFLEQS
RESULT: 27

QUERY: Dear colleague, I am looking for the recorded SPOT peptide array binding signal intensity of the following binder: MKRSRPSRSIPYTTP
RESULT: 347

QUERY: Dear colleague, I am looking for the recorded SPOT peptide array binding signal intensity of the following binder: DRIRMFIRFPKFLLE
RESULT: 22.2

QUERY: Dear colleague, I am looking for the recorded SPOT peptide array binding signal intensity of the following binder: VATSTSPKLPPRGKQ
RESULT: 521

QUERY: Dear colleague, I am looking for the recorded SPOT peptide array binding signal intensity of the following binder: KNPRRQLQIPRQQPS
RESULT: 218
